Sourced from ChEMBL document CHEMBL3112513

Test system: Mus musculus
Assay Overview: Antipsychotic activity in ip dosed albino lyka mouse assessed as reversal of apomorphine-induced mesh climbing response administered 10 mins prior to apomorphine challenge measured 10 to 30 mins post challenge
Type: functional
Note to self: ED50 under 2 mg/kg means 1, ties and anything higher get 0.

Record excerpt, results attached:
>  <Smiles Str>
Clc1ccccc1NCCCOc1ccccc1-c1cc2ccccc2[nH]1

>  <Assigned Category>
0

$$$$
>  <Smiles Str>
Clc1ccccc1NCCCOc1ccc(-c2cc3ccccc3[nH]2)cc1

>  <Assigned Category>
1

$$$$
>  <Smiles Str>
COc1ccccc1NCCCOc1ccc(-c2cc3ccccc3[nH]2)cc1

>  <Assigned Category>
1

$$$$
>  <Smiles Str>
Clc1ccc(NCCCOc2ccc(-c3cc4ccccc4[nH]3)cc2)cc1

>  <Assigned Category>
1

$$$$
>  <Smiles Str>
COc1ccc(NCCCOc2ccc(-c3cc4ccccc4[nH]3)cc2)cc1

>  <Assigned Category>
1

$$$$

Please check: ED50 for Clc1ccc(NCCCOc2ccccc2-c2cc3ccccc3[nH]2)cc1 , strictly under 2 mg/kg or not?
0

Please check: ED50 for CN1CCN(C2=Nc3cc(Cl)ccc3Nc3ccccc32)CC1 , strictly under 2 mg/kg or not?
0
